# Read-out: Monocyte Chemoattractant Protein-1 (MCP1), CCL2 (gene 6347)
# method: BSK_LPS_MCP1: BioMAP Diversity Plus: LPS Assay for Monocyte Chemoattractant Protein-1 (MCP1) Biomarker Activity (AID 2283081)
# condition.parameters: primary human HUVEC with PBMC; actives raise or lower the signal
The source made the active and inactive calls. The calls were made as follows: active = hit-call score of the fitted dose curve at least 0.9, where 1 is the maximum; inactive = score below 0.9.
Return exactly one item of 1 (active), 0 (inactive)

Please review the entries below; each comes with its answer.
**Query** Field: outcome | Entry: `N#CC(Br)Br`
**Result** 0

**Query** Please share the test call associated with `CCC12COCN1COC2` .
**Result** 0

**Query** Assay result, entry `CCN(CC)CCO` — outcome?
**Result** 0

**Query** Check the results log: what was the call for `Clc1ccc(C(c2ccc(Cl)cc2)C(Cl)(Cl)Cl)cc1` ?
**Result** 1

**Query** What is the recorded call for this compound in the test? `C1=Cc2cccc3cccc1c23`
**Result** 0

**Query** Assay result, entry `Nc1ccc([N+](=O)[O-])cc1` — outcome?
**Result** 0

**Query** Which outcome did this test record for the compound `CCOC(=O)[C@]1(c2ccccc2)Oc2ccccc2[C@@H]1N` ?
**Result** 0

Field: next compound
**Query** Write down the call the test reported for this compound. Item: `O=C1CCCO1`
**Result** 0
